Biological target: Luciferin 4-monooxygenase (Photinus pyralis)
Assay: qHTS profiling assay for firefly luciferase inhibitor/activator using purifed enzyme and Km concentrations of substrates (counterscreen for miR-21 project); note: nearly all actives have a fitted effect of over 55% in size
Conditions: purified FLuc, luminescence inhibition; series mostly up to 57.5 µM
The campaign covered roughly 360,000 compounds. About 25,000 (6.9%) were called active. Another 9% or so got no clear call; they are omitted. Calls come from the whole dose curve; as a rule, active = well fitted inhibition curve with a large enough effect; inconclusive = small, poorly fitted or top-dose-only effect; inactive = flat fitted curve, though single readings scatter. Many of the other results were omitted from the sample, so actives are more common in it than they were.
Field 'call' accepts active, inactive

Completed entries (count: 10):
compound	label
Cc1ccc(S(=O)(=O)Cc2cc(-c3ccc(Cl)cc3)no2)cc1	inactive
O=C(CCc1nnc2ccc(NCc3ccco3)nn12)Nc1cc(F)ccc1F	inactive
COc1ccc(NC(=O)c2sccc2SCC#N)cc1	active
CCOc1ccc(C(=O)Nc2ccc(CN3CCOCC3)cc2)cc1Cl	active
Cc1ccc(-c2cc(N)n(Cc3cccc(Cl)c3)n2)cc1	inactive
COc1ccc(-c2nn(-c3ccccc3)cc2/C=N/Nc2ccccn2)cc1OC	active
CC1=C(C(=O)Nc2ccccc2)C(c2cccs2)C(C#N)=C(SCC#N)N1 (configuration not stated)	inactive
O=C(CN1C(=O)NC2(CCOc3ccccc32)C1=O)NCc1ccc(F)cc1 (configuration not stated)	inactive
CCCc1cc(=O)oc2cc(OCC(=O)Nc3ccc(CN4CCOCC4)cc3)c(Cl)cc12	inactive
CN(C)/N=C/c1cn(-c2ccccc2)nc1-c1cccnc1	inactive

Prompt line: Write down the call the test reported for this compound. Item: "CCOc1ccc(Nc2c(S(=O)(=O)c3ccccc3)cnc3ccccc23)cc1"
Response line: inactive

Prompt line: Write down the call the test reported for this compound. Item: "COc1ccc(NS(=O)(=O)c2ccc(NC(=O)c3ccc(N(C)S(C)(=O)=O)cc3)cc2)cc1"
Response line: inactive

Prompt line: Write down the call the test reported for this compound. Item: COc1ccc(CC(=O)N2N=C(C)CC2(O)C(F)(F)F)cc1 (configuration not stated)
Response line: inactive

Prompt line: Write down the call the test reported for this compound. Item: COc1ccc(C2CC(c3cccs3)=NN2c2ccccc2)cc1 (configuration not stated)
Response line: active

Prompt line: Write down the call the test reported for this compound. Item: "CCc1ccc(S(=O)(=O)Nc2cc3c(C(=O)OCc4ccccc4)c(C)oc3c3ccccc23)cc1"
Response line: inactive

Prompt line: Write down the call the test reported for this compound. Item: "COc1ccccc1Nc1nc(N)nc(N)c1S(=O)(=O)c1ccccc1"
Response line: inactive

###

Molecular target: Luciferin 4-monooxygenase (Photinus pyralis)
Assay: qHTS profiling assay for firefly luciferase inhibitor/activator using purifed enzyme and Km concentrations of substrates (counterscreen for miR-21 project); note: nearly all actives have a fitted effect of over 55% in size; note: potency is the fitted concentration of half-maximal effect
Settings: purified FLuc, luminescence inhibition; series mostly up to 57.5 µM
Hit rate of the full screen: of about 360,000 compounds, about 25,000 (6.9%) were called active. Not shown: some 9% with an inconclusive outcome. What follows is part of a selection rich in actives, with near analogues and random picks from the rest.
measured_property: Potency

compound	obs_value
O=C(/C=C/c1ccco1)Nc1ccc(Oc2ccccc2)cc1	6.01 µM (active)
Cc1ccccc1C(=O)O	inactive
Cc1cccc(NC(=O)C2CC(=O)OC23CCCC3)c1 (stereo unspecified)	inactive
Cc1cc(NC(=O)[C@H](C)NC(=O)c2ccco2)ccc1Br	inactive
Cc1ccc2oc3c(c(=O)c2c1)C(c1ccc(O)cc1)N(Cc1ccc2c(c1)OCO2)C3=O (stereo unspecified)	inactive
COC(=O)c1cc(NC(=O)c2ccco2)ccc1N1CCOCC1	inactive

# lookup: "Cc1cc(NC(=O)c2ccc(F)cc2)ccc1NC(=O)c1ccco1" on Luciferin 4-monooxygenase (Photinus pyralis), Potency = 16.9 µM (active)

# lookup: "Cc1nn(-c2ccc(F)cc2)c(-n2cccc2)c1C(=O)N1CCN(c2ccccc2)CC1" on Luciferin 4-monooxygenase (Photinus pyralis), Potency = inactive

# lookup: N#Cc1c(NC(=O)C2CC(Cl)=CCC2C(=O)O)sc2c1CCCCC2 (stereo unspecified) on Luciferin 4-monooxygenase (Photinus pyralis), Potency = inactive

# lookup: "O=C(Nc1ccccc1)/C(=C\c1ccco1)NC(=O)c1ccco1" on Luciferin 4-monooxygenase (Photinus pyralis), Potency = inactive

# lookup: "CCOC(=O)c1ccc(NC(=O)CNC(=O)c2ccco2)cc1" on Luciferin 4-monooxygenase (Photinus pyralis), Potency = inactive

###

Molecular target: Luciferin 4-monooxygenase (Photinus pyralis)
Assay: qHTS profiling assay for firefly luciferase inhibitor/activator using purifed enzyme and Km concentrations of substrates (counterscreen for miR-21 project); note: nearly all actives have a fitted effect of over 55% in size
Details: purified FLuc, luminescence inhibition; series mostly up to 57.5 µM
In all, about 360,000 compounds went through this assay and about 25,000 (6.9%) were called active. Another 9% or so got no clear call; they are omitted. Calls come from the whole dose curve; as a rule, active = well fitted inhibition curve with a large enough effect; inconclusive = small, poorly fitted or top-dose-only effect; inactive = flat fitted curve, though single readings scatter. Only a selection was taken, and actives are over-represented in it overall.
Field 'call' accepts true = active, false = inactive

Completed entries (count: 4):
compound	assayed_system	label
Cc1ccccc1CN1CCN(C(=O)c2cccc(F)c2)CC1	Luciferin 4-monooxygenase (Photinus pyralis)	false
Cc1nn(C(C)C(=O)Nc2ccc(C(C)C)cc2)c(=O)c2c1sc1ccccc12 (configuration not stated)	Luciferin 4-monooxygenase (Photinus pyralis)	false
CCCOc1cccc(C(=O)Nc2cccc(NC(=O)c3ccc(C(C)(C)C)cc3)c2)c1	Luciferin 4-monooxygenase (Photinus pyralis)	true
CCC(=O)N1CCCc2ccccc21	Luciferin 4-monooxygenase (Photinus pyralis)	false

Prompt line: Write down the call the test reported for this compound. Item: "COc1ccc(C(=S)Nc2ccccc2)cc1"
Response line: true

Prompt line: Write down the call the test reported for this compound. Item: "Oc1ccc2ccccc2c1N=Nc1nccs1"
Response line: true

Prompt line: Write down the call the test reported for this compound. Item: CCOc1ccc(NC(=O)c2cccc3c2C(=O)N(CC2CCCO2)C3)cc1 (configuration not stated)
Response line: true

Prompt line: Write down the call the test reported for this compound. Item: "O=C(CSCc1ccccc1)N1CCc2ccccc21"
Response line: true

Prompt line: Write down the call the test reported for this compound. Item: "CCCC(=O)NC(=S)Nc1ccc(CN2CCOCC2)cc1"
Response line: false

Prompt line: Write down the call the test reported for this compound. Item: "COCCN1Cc2cccc(C(=O)Nc3ccccc3OC)c2C1=O"
Response line: false

Prompt line: Write down the call the test reported for this compound. Item: "COc1ccc(C(=O)CCC(=O)Nc2ccc(Cl)cc2)cc1"
Response line: false

Prompt line: Write down the call the test reported for this compound. Item: "CCOc1ccc(OCC)c(Nc2nc3ccccc3n3nnnc23)c1"
Response line: false

###

Target: Luciferin 4-monooxygenase (Photinus pyralis) (UniProt P08659)
Sequence (P08659 whole entry, looked up): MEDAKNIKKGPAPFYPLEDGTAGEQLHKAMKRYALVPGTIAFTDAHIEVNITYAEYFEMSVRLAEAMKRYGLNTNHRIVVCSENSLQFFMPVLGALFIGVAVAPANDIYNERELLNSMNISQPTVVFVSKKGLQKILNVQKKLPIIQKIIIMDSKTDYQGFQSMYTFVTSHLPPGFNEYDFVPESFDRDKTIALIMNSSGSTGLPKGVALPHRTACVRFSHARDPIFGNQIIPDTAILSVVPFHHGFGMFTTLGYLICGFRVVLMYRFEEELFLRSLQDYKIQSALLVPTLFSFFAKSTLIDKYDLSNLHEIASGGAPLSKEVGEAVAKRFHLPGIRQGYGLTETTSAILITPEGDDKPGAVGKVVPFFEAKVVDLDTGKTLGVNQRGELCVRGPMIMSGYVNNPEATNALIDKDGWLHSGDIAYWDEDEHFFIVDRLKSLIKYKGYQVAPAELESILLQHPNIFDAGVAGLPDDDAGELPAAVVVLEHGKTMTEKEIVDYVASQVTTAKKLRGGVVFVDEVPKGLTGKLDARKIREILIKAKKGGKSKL
Experiment: qHTS profiling assay for firefly luciferase inhibitor/activator using purifed enzyme and Km concentrations of substrates (counterscreen for miR-21 project); note: nearly all actives have a fitted effect of over 55% in size
Details: purified FLuc, luminescence inhibition; series mostly up to 57.5 µM
The whole screen tested about 360,000 compounds, of which about 25,000 (6.9%) were called active. Roughly 9% stayed inconclusive and do not appear here. Calls come from the whole dose curve; as a rule, active = well fitted inhibition curve with a large enough effect; inconclusive = small, poorly fitted or top-dose-only effect; inactive = flat fitted curve, though single readings scatter. Shown is part of a subset that was picked to be rich in actives.
Field 'call' accepts 1 (yes) = active, 0 (no) = inactive

Completed entries (count: 10):
molecule	assayed_system	label
COc1ccc(CNC(=O)c2cc3cccc(OC)c3oc2=O)cc1	Luciferin 4-monooxygenase (Photinus pyralis) (UniProt P08659)	0 (no)
NC(=O)c1cc2ccccc2o/c1=N/NC(=O)c1cccc(F)c1	Luciferin 4-monooxygenase (Photinus pyralis) (UniProt P08659)	0 (no)
Cc1cc(C)cc(OCC(=O)NNC(=O)c2cc3ccccc3oc2=O)c1	Luciferin 4-monooxygenase (Photinus pyralis) (UniProt P08659)	0 (no)
O=C(CSc1nnc2ccccn12)c1ccccc1	Luciferin 4-monooxygenase (Photinus pyralis) (UniProt P08659)	1 (yes)
N#Cc1ccc(CSc2nnc3ccccn23)cc1	Luciferin 4-monooxygenase (Photinus pyralis) (UniProt P08659)	0 (no)
O=C(NCc1ccccn1)c1cc2ccccc2oc1=O	Luciferin 4-monooxygenase (Photinus pyralis) (UniProt P08659)	1 (yes)
Cc1cc(C)cc(NC(=S)NCCc2c[nH]c3ccccc23)c1	Luciferin 4-monooxygenase (Photinus pyralis) (UniProt P08659)	0 (no)
CN(c1ccccc1)S(=O)(=O)c1ccc(Cl)c(C(=O)NCCc2c[nH]c3ccccc23)c1	Luciferin 4-monooxygenase (Photinus pyralis) (UniProt P08659)	0 (no)
CCN(C(=O)CSc1nnc2ccccn12)C1CCS(=O)(=O)C1 (stereo unspecified)	Luciferin 4-monooxygenase (Photinus pyralis) (UniProt P08659)	0 (no)
Cc1ccc(Cl)c(NC(=O)CN2CCN(C=O)CC2)c1	Luciferin 4-monooxygenase (Photinus pyralis) (UniProt P08659)	0 (no)

We next turn to a different molecule, shown below.
Prompt line: Write down the call the test reported for this molecule. Item: "Cc1cc(C)c(CN2CCN(C(=O)Cn3ccc(NC(=O)OCc4ccccc4)nc3=O)CC2)c(C)c1"
Response line: 0 (no)

###

Biological target: Luciferin 4-monooxygenase (Photinus pyralis) (UniProt P08659)
Assay: qHTS profiling assay for firefly luciferase inhibitor/activator using purifed enzyme and Km concentrations of substrates (counterscreen for miR-21 project); note: nearly all actives have a fitted effect of over 55% in size
Conditions: purified FLuc, luminescence inhibition; series mostly up to 57.5 µM
Among all 360,000 compounds or so, about 25,000 (6.9%) were called active. About 9% were inconclusive and are not listed. Calls follow the shape of the dose curve; as a rule, active = well fitted inhibition curve with a large enough effect; inconclusive = small, poorly fitted or top-dose-only effect; inactive = flat fitted curve, though single readings scatter. What follows is part of a selection rich in actives, with near analogues and random picks from the rest.
Field 'call' accepts active, inactive

compound	assayed_system	label
Cc1ccccc1CSCCNC(=O)C1CCN(S(=O)(=O)Cc2ccccc2)CC1	Luciferin 4-monooxygenase (Photinus pyralis) (UniProt P08659)	inactive
CC1CCCN(CC(O)COc2ccc3c(c2)OCO3)C1 (configuration not stated)	Luciferin 4-monooxygenase (Photinus pyralis) (UniProt P08659)	inactive
Cc1ccc2nc(/C(C#N)=C/c3ccccc3F)[nH]c2c1	Luciferin 4-monooxygenase (Photinus pyralis) (UniProt P08659)	active

Prompt line: Write down the call the test reported for this compound. Item: "O=C(Nc1ccc(Br)cn1)c1ccc([N+](=O)[O-])cc1Cl"
Response line: active

Prompt line: Write down the call the test reported for this compound. Item: "CC1(C)CC(=O)C=C(c2ccc(Cl)c(C(F)(F)F)c2)C1"
Response line: inactive

Prompt line: Write down the call the test reported for this compound. Item: "COc1cc(/C=C(\C#N)c2nc3ccccc3[nH]2)ccc1O"
Response line: active

Prompt line: Write down the call the test reported for this compound. Item: "O=C(Nc1cccnc1)c1cc([N+](=O)[O-])ccc1Cl"
Response line: inactive

Prompt line: Write down the call the test reported for this compound. Item: O=C(NCCN1CCCC(O)C1)c1cc(COc2c(F)cccc2F)on1 (configuration not stated)
Response line: inactive

Prompt line: Write down the call the test reported for this compound. Item: "O=C(COc1ccc(Cl)cc1)N(Cc1ccco1)Cc1ccco1"
Response line: inactive

Prompt line: Write down the call the test reported for this compound. Item: "C=CCC1(CC=C)CCCN1C(=O)c1cc(COc2ccc(-n3cncn3)cc2)on1"
Response line: inactive
